ASSAY EXPLANATION: differential killing of epithelial or mesenchymal cells, primary screen, imaging, PC-3E GFP, TEM4-18 mCherry, co-culture (AID 1345086);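 note: normalised mesenchymal count divided by normalised epithelial count so high means epithelial killing; cells exposed to compound for 72 h before imaging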
MEASUREMENT CONDITIONS: imaging cell counts, at 1 µM, actives lie on both sides
Provide the reported red/green cell ratio (normalised) of each item.
Provide a numeric answer; units are not to be included.

QUERY: Consider the molecule C#CC1(O)CCC2C3CCC4=CC(=O)CCC4(C)C3CCC21C (centres undefined) and give its measured red/green cell ratio (normalised).
RESULT: 0.77

QUERY: Note, next up: c1ccc2c(c1)sc1ccccc12
RESULT: 1.2

QUERY: Note, next up: CCCCOC(=O)c1ccccc1C(=O)OCCCC
RESULT: 1.22

QUERY: Note, next up: CCSCCC(N)C(=O)O (centres undefined)
RESULT: 0.84

QUERY: Note, next up: CC[C@@]1(O)C[C@H](O[C@H]2C[C@H](N(C)C)[C@H](O)[C@H](C)O2)c2c(cc3c(c2O)C(=O)c2c(O)ccc(O)c2C3=O)[C@H]1C(=O)OC
RESULT: 0.85

QUERY: Note, next up: C=CCN1CC[C@]23c4c5ccc(O)c4OC2C(=O)CC[C@@]3(O)[C@H]1C5 (some centres undefined)
RESULT: 1.09

QUERY: Note, next up: OC[C@@H]1CCCN2CCCC[C@H]12
RESULT: 0.92

QUERY: Note, next up: Cc1cccc(C)c1NC1=NCCCS1
RESULT: 1.15

QUERY: Note, next up: Nc1ccc([As](=O)(O)O)cc1
RESULT: 0.96

* * *

ASSAY EXPLANATION: inhibition of 3D7 malaria parasite growth – strain 3D7 (AID 2306);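 note: 0% = DMSO wells and 100% = chloroquine plus artemisinin control wells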
MEASUREMENT CONDITIONS: P. falciparum 3D7 erythrocytic growth, LDH absorbance, 72 h; at 2 µM; stronger effect = higher value
Provide the reported growth inhibition of each item.
Answer in %, number only, no unit symbol.

QUERY: Consider the compound CC[C@H]1CN2CC[C@H]1C[C@H]2[C@H](O)c1ccnc2ccc(OC)cc12 and give its measured growth inhibition.
RESULT: 100

QUERY: Note, next up: COC(=O)c1ccc(CC(C)NCC(O)c2ccc3ccc4ccccc4c3c2)cc1 (centres undefined)
RESULT: 100

QUERY: Note, next up: O=C(/C=C/c1ccc(Cl)c(Cl)c1)NC1CCC(CN2CCC(c3c[nH]c4ccccc34)CC2)CC1 (centres undefined)
RESULT: 101

QUERY: Note, next up: COc1cccc(C(=O)C2CC2CN2CC=C(c3c(C)[nH]c4ccccc34)CC2)c1 (centres undefined)
RESULT: 92

QUERY: Note, next up: CN(C(=O)OCc1ccccc1)C1CCC(CCN2CCC3(CC2)C(=O)NCN3c2cccc(C(F)(F)F)c2)(c2ccccc2)CC1 (centres undefined)
RESULT: 80

QUERY: Note, next up: Cc1ccc(-n2nc(C)c3c2NC(=O)CSC3c2ccsc2)cc1 (centres undefined)
RESULT: 97

QUERY: Note, next up: CN1C(=O)OC[C@@H]1Cc1ccc2[nH]cc(C3=CCN(Cc4ccccc4)CC3)c2c1
RESULT: 86

QUERY: Note, next up: Oc1ccc(CN2CCN(CCOC(c3ccccc3)c3ccccc3)CC2)cc1Cl
RESULT: 98

QUERY: Note, next up: Oc1cccc(C2CCCN(Cc3cccc4cc[nH]c34)C2)c1 (centres undefined)
RESULT: 101

* * *

ASSAY EXPLANATION: viability loss in pontine glioma line – cell-based, SU-DIPG-XXV, MIPE5.0, CellTiter-Glo, qHTS, dose response (AID 1347065);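 note: cells exposed to compound for 48 hours before ATP readout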
MEASUREMENT CONDITIONS: CellTiter-Glo ATP luminescence
Inconclusive results are not listed. Active and inactive are the calls of the source. No cut-off is given here; in the data, nearly all actives have AC50 up to about 26 µM.
Form entry, call: pick from true (1) (active), false (0) (inactive)

QUERY: For N=C1NC(=O)N2CC12 (stereo unspecified) , what call appears in the results of this test?
RESULT: false (0)

QUERY: Note, next up: O=C(Nc1ccncc1)C(=O)c1cn(Cc2ccc(Cl)cc2)c2ccccc12
RESULT: true (1)

QUERY: Note, next up: C[C@@H]1O[C@@H](O[C@@H]2C=C3CC[C@@H]4[C@H](CC[C@]5(C)[C@@H](c6ccc(=O)oc6)CC[C@]45O)[C@@]3(C)CC2)[C@H](O)[C@H](O)[C@H]1O
RESULT: true (1)

QUERY: Note, next up: CC1(C)CC(O)CC(C)(C)N1O
RESULT: false (0)

QUERY: Note, next up: CC1=C2C[C@H]3[C@@H](CC=C4C[C@@H](O)CC[C@@]43C)[C@@H]2CC[C@]12O[C@@H]1C[C@H](C)CN[C@H]1[C@H]2C
RESULT: false (0)

QUERY: Note, next up: O=C(O)c1nn(Cc2ccc(Cl)cc2Cl)c2ccccc12
RESULT: false (0)

QUERY: Note, next up: CC(N[C@H]1C[C@@H]1c1ccccc1)c1ccc2c(c1)OCCO2 (stereo partly specified)
RESULT: false (0)

QUERY: Note, next up: COc1cc2c(cc1F)C(c1ccccc1Cl)=Nc1c(n[nH]c1C)N2
RESULT: true (1)

QUERY: Note, next up: COc1cc([C@@H]2c3cc4c(cc3[C@@H](O)C3COC(=O)C32)OCO4)cc(OC)c1O (stereo partly specified)
RESULT: true (1)

QUERY: Note, next up: C#CCN(C)[C@H](C)Cc1ccccc1
RESULT: false (0)

QUERY: Note, next up: CN1[C@@H]2CC(O)C[C@H]1[C@@H]1O[C@@H]12 (stereo partly specified)
RESULT: false (0)

QUERY: Note, next up: CN1C(=O)COc2c(C(=O)NC3CN4CCC3CC4)cc(Cl)cc21 (stereo unspecified)
RESULT: false (0)

QUERY: Note, next up: Cc1sc2c(c1C)C(c1ccc(Cl)cc1)=N[C@@H](CC(=O)OC(C)(C)C)c1nnc(C)n1-2
RESULT: true (1)

QUERY: Note, next up: C=C(C)[C@H]1Cc2c(ccc3c2O[C@@H]2COc4cc(OC)c(OC)cc4[C@@H]2C3=O)O1
RESULT: true (1)

QUERY: Note, next up: CNCC(O)c1ccc(O)cc1 (stereo unspecified)
RESULT: false (0)

QUERY: Note, next up: C[C@]12CC[C@H]3[C@@H](CC[C@@]45O[C@@H]4C(O)=C(C#N)C[C@]35C)[C@@H]1CC[C@@H]2O
RESULT: true (1)

* * *

ASSAY EXPLANATION: antimalarial activity against Dd2 strain (AID 2302);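 note: 0% = DMSO untreated growth and 100% = chloroquine plus artemisinin killed control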
MEASUREMENT CONDITIONS: P. falciparum Dd2 in RBCs, LDH growth readout, 72 h; at 2 µM; stronger effect = higher value
Provide the reported growth inhibition of each item.
Answer in %, number only, no unit symbol.

QUERY: Consider the compound CNC(=O)c1ccc2[nH]cc(C3CCN(CC4CCN(C(=O)/C=C/c5ccc(Cl)c(Cl)c5)CC4)CC3)c2c1 and give its measured growth inhibition.
RESULT: 88

QUERY: Note, next up: Cc1cc2ccc(CNCCc3ccccc3Br)cc2nc1N
RESULT: 48

QUERY: Note, next up: CC(Cc1ccc(C2=CCNCC2)cc1)NCC(O)c1cccc(C(F)(F)F)c1 (centres undefined)
RESULT: -2

QUERY: Note, next up: CC[C@H]1CN2CC[C@@H]1C[C@@H]2[C@@H](O)c1cc(-c2ccc(F)cc2)nc2ccc(OC)cc12
RESULT: 64

QUERY: Note, next up: CN(c1cc(NC(=O)c2ccc(F)cc2)ccn1)C1CCN(Cc2cccc(F)c2)CC1
RESULT: 97

QUERY: Note, next up: Cn1cc(CN2CCC(CCOC(c3ccccc3)c3ccccc3)CC2)cn1
RESULT: 100

QUERY: Note, next up: COCC(=O)N(Cc1ccccc1-c1cccc(CNCCc2ccccc2)c1)C1CCN(Cc2ccccc2)CC1
RESULT: 36

QUERY: Note, next up: COCCNCc1ccc(-c2cccc(CN(C(=O)CCC3CCCC3)C3CCN(Cc4ccccc4)CC3)c2)cc1
RESULT: 86

QUERY: Note, next up: O=C(Nc1ccc(Oc2ccccc2)cc1)N1CCC(CN2CCC(c3c[nH]c4ccccc34)CC2)CC1
RESULT: 59

* * *

ASSAY EXPLANATION: sensitizers of A549 cells to miR-34 induction, primary screen, imaging, A549 dox-inducible miR-34, nuclei and caspase counts (AID 1347080)
MEASUREMENT CONDITIONS: A549 miR-34 inducible, Hoechst nuclei count, 48 h; measured here: total cells with miR-34 induction; stronger effect = lower value
cell count vs 10000: less than gives 1.0; not less than gives 0.0.

QUERY: Bench note: check whether N#Cc1ccc(N2CCN(C(=O)COc3ccc4[nH]cc(CCN)c4c3)CC2)cc1 shows cell count below 10000
RESULT: 1.0

QUERY: Note, next up: O=C1C=C2C=C[C@@H]3CC2(O1)[C@H]1CCCCN31
RESULT: 1.0

QUERY: Note, next up: CCN(CC)C(=O)c1ccc(C2=CC3(CCNCC3)Oc3cccc(O)c32)cc1
RESULT: 1.0

QUERY: Note, next up: CCCN(CCCN)N(O)N=O
RESULT: 1.0

QUERY: Note, next up: CC1=C2[C@H]3OC(=O)[C@@H](C)[C@@H]3CC[C@@]2(C)C=CC1=O
RESULT: 1.0

QUERY: Note, next up: CN1CCN(c2nc3ccccc3nc2Cl)CC1
RESULT: 1.0

QUERY: Note, next up: COC1=C[C@@H]2C3Cc4ccc(OC)c(O)c4[C@]2(CCN3C)CC1=O
RESULT: 1.0

QUERY: Note, next up: N[C@@]1(C(=O)O)CC[C@@H](C(=O)O)C1
RESULT: 0.0

QUERY: Note, next up: N=C(N)c1ccc(CS(=O)(=O)F)cc1
RESULT: 0.0
